- STUDY TARGET: Sushi domains (SD1/2) protein of the GABAB1a (GB1a) subunit, recombinant
- Sequence (Q9Z0U4 29-158): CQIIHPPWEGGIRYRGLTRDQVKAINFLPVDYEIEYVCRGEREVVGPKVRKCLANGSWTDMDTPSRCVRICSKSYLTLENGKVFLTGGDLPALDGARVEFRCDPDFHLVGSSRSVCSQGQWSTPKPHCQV
- EXPERIMENTAL DETAILS: FP competition
Non-standard residues stand in square brackets, D forms with d. NMeE = CN[C@@H](CCC(=O)O)C(=O)O; NMeS = CN[C@@H](CO)C(=O)O
VALUE TYPE: log10 Ki (log10 of the value in nM)
All values: base-10 log of Ki in nM.

Consider the reported log10 Ki for these binders:
| BINDER | log10 Ki |
| --- | --- |
| Ac-PWAIVWGPTVSREDGGDPNS-NH2 | 2.85 |
| Ac-EDASDVWWGGADTD-NH2 | 3.26 |
| Ac-IAWGPTGDED-NH2 | 4.58 |
| Ac-EDDSDVWWGGSDTD-NH2 | 2.31 |
| Ac-[NMeE]TEFIAWGPTGDED-NH2 (SMILES CC[C@H](C)[C@H](NC(=O)[C@H](Cc1ccccc1)NC(=O)[C@H](CCC(=O)O)NC(=O)[C@@H](NC(=O)[C@H](CCC(=O)O)N(C)C(C)=O)[C@@H](C)O)C(=O)N[C@@H](C)C(=O)N[C@@H](Cc1c[nH]c2ccccc12)C(=O)NCC(=O)N1CCC[C@H]1C(=O)N[C@H](C(=O)NCC(=O)N[C@@H](CC(=O)O)C(=O)N[C@@H](CCC(=O)O)C(=O)N[C@@H](CC(=O)O)C(N)=O)[C@@H](C)O) [(N-Me-E)…] | 1.54 |
| Ac-EDD[NMeS]DVWWGGADTD-NH2 (SMILES CC(=O)N[C@@H](CCC(=O)O)C(=O)N[C@@H](CC(=O)O)C(=O)N[C@@H](CC(=O)O)C(=O)N(C)[C@@H](CO)C(=O)N[C@@H](CC(=O)O)C(=O)N[C@H](C(=O)N[C@@H](Cc1c[nH]c2ccccc12)C(=O)N[C@@H](Cc1c[nH]c2ccccc12)C(=O)NCC(=O)NCC(=O)N[C@@H](C)C(=O)N[C@@H](CC(=O)O)C(=O)N[C@H](C(=O)N[C@@H](CC(=O)O)C(N)=O)[C@@H](C)O)C(C)C) [EDD(N-Me-S)…] | 3.22 |
| Ac-EDDSWVWWGGADTD-NH2 [… (APPWT mutant D207W)] | 2.00 |
| Ac-ETEFIAWGPTG[dD]ED-NH2 […dED] | 1.46 |

Kindly consider the entry below.
// query Field request: log10 Ki | item: "Ac-EDDSDVWWGPADTD-NH2"
// result 2.52
